This collection of values is drawn from patent US6930110B2.

- System: mouse
- testMethodNotes: Inhibition of spontaneous motor activity (sedative effect)
- Type: in vivo
- assayContext: per os, 60 min before test, interruptions of infrared beams recorded for 30 min
measuredMetric: ID50 in mg/kg po. (mg/kg)
Dear colleague, please return just the value in mg/kg, with no unit written.

>>> df
                                   compound  quantitativereadout
0  CN1C(=O)CN=C(c2ccccc2)c2cc(Cl)ccc21 [Diazepam, reference compound]                  7.0
1  O=c1cc(NCCN2CCN(c3cccc4c3OCCO4)CC2)cn[nH]1 [Example 10]                 53.3

Provide ID50 in mg/kg po. value for the following compound: O=c1[nH]ncc(NCCN2CCN(c3cccc4c3OCCO4)CC2)c1Cl [Example 5]
11.0
